Each recorded value in this set is attributed to patent US20060134087A1.

Overview of reported Fraction of Input recovered at pH7.0 across a group of binders:
# System tested: Human Neutrophil Elastase (human, UniProt P08246)
# Assay procedure: pH elution of display phage from hNE beads, extended protocol

Some solved cases for reference:
Which measured Fraction of Input recovered at pH7.0 value corresponds to MUT1619 display phage (designed binder) RPDFCQLGYSAGPCVGMFSRYFYNGTSMACQTFVYGGCMGNGNNFVTEKDCLQTCRGA ?
8.2e-05 fraction of input

Which measured Fraction of Input recovered at pH7.0 value corresponds to AMINO1 display phage (designed binder) KEDFCQLGYSAGPCVAMFPRYFYNGTSMACETFQYGGCMGNGNNFVTEKDCLQTCRGA ?
2.4e-05 fraction of input

Which measured Fraction of Input recovered at pH7.0 value corresponds to MUTT26A display phage (designed binder) RPDFCQLGYSAGPCVAMFPRYFYNGASMACQTFVYGGCMGNGNNFVTEKDCLQTCRGA ?
0.00025 fraction of input

Which measured Fraction of Input recovered at pH7.0 value corresponds to MA-BITI-E7-141 display phage (designed binder) RPDFCQLGYSAGPCVAMFPRYFYNGTSMACQTFVYGGCMGNGNNFVTEKDCLQTCRGA ?
0.00021 fraction of input

---
Which measured Fraction of Input recovered at pH7.0 value corresponds to MA-BITI-E7-1222 display phage (designed binder) RPDFCQLGYSTGPCVAMFPRYFYNGTSMACETFQYGGCMGNGNNFVTEKDCLQTCRGA ?
7.2e-05 fraction of input
